- MEASURED_TARGET: human GlyT1c transporter (Homo sapiens (Human), UniProt P48067)
- Sequence (P48067 whole entry): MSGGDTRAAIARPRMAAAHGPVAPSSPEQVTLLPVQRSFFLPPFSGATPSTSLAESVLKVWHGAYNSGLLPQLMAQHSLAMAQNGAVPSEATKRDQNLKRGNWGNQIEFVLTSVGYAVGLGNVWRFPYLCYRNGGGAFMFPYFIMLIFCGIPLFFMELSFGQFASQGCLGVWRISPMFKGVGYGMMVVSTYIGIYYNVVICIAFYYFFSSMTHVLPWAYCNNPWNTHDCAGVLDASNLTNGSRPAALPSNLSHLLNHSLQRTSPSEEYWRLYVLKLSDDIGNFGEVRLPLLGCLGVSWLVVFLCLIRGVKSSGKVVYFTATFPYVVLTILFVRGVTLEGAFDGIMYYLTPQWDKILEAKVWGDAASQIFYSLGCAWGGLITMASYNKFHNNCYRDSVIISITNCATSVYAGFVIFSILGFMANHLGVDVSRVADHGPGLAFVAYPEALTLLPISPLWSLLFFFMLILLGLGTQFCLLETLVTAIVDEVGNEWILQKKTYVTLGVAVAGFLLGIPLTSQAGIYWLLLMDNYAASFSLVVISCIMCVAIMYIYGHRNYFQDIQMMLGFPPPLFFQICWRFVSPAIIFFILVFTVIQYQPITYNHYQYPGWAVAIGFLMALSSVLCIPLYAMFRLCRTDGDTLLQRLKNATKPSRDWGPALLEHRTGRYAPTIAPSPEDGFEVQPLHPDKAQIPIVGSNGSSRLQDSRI
- TEST_NAME: Radioligand binding assays using recombinant CHO cell membranes expressing human GlyT1
- ASSAY_SETUP: read-out: radioligand binding Kiapp
Counter-ions that a name gives are not always drawn.
VALUE_TYPE: Ki

Input line: Query: Ki; subject: "O=S(=O)(CC1CC1)NCCOc1cccc(C2(Cc3ccccc3)CNC2)c1"
Output line: ≤ 1000 nM

Input line: Requested field: Ki. Item: Cn1cc(S(=O)(=O)NCc2cccc(C3(Cc4ccccc4)CCNC3)c2)cn1 (centres unmarked)
Output line: ≤ 100 nM

Input line: What does the record list as Ki for "Cn1cnc(S(=O)(=O)NCCOc2cccc(C3(Cc4ccccc4)CN(CC(F)F)C3)c2)c1" ?
Output line: ≤ 1000 nM

Input line: Can you look up the measured Ki of Cn1cnc(S(=O)(=O)NCCOc2cccc(C3(Cc4ccccc4)CNC(=O)C3)c2)c1 (centres unmarked) for me?
Output line: ≤ 1000 nM

Input line: Item "COCCN1CC(Cc2ccccc2)(c2cccc(OCCNS(=O)(=O)c3cn(C)cn3)c2)C1" has what recorded Ki?
Output line: ≤ 100 nM

Input line: Endpoint output: Ki of Cn1cc(S(=O)(=O)NCCOc2cccc(C(Cc3ccccc3)CN3CCC3)c2)cn1 (centres unmarked) . Value?
Output line: ≤ 1000 nM

Input line: Request the reported Ki associated with Cn1cnc(S(=O)(=O)NCCOc2cccc(C(CN)Cc3cccc(Cl)c3)c2)c1 (centres unmarked) [Example 9, hydrochloride]
Output line: ≤ 1000 nM

Input line: For the molecule shown here, CN(Cc1cccc(C(CN)C2(c3ccc(Cl)cc3)CCC2)c1)S(=O)(=O)CCCF (centres unmarked) [Example 43, hydrochloride] , give the reported Ki.
Output line: ≤ 10000 nM

* * *

- MEASURED_TARGET: human GlyT1c transporter (Homo sapiens (Human), UniProt P48067)
- TEST_NAME: Radioligand binding assays using recombinant CHO cell membranes expressing human GlyT1
- ASSAY_SETUP: read-out: radioligand binding Kiapp
- Method: Radioligand binding to human GlyT1c transporter-expressing membranes was determined as described in Mezler et al., Molecular Pharmacology 74:1705-1715, 2008.
pKi: −log10 of the molar value. Counter-ions that a name gives are not always drawn.
VALUE_TYPE: pKi

Input line: Give the measured pKi of CN(C)CC(Cc1ccccc1)c1cccc(OCCNS(=O)(=O)c2cn(C)cn2)c1 (stereo not shown) .
Output line: ≥ 6.00

Input line: # query: pKi of entry CN(C)CC(Cc1ccccc1)c1ccc(F)c(OCCNS(=O)(=O)c2cnn(C)c2)c1 (stereo not shown)
Output line: ≥ 7.00

Input line: Requested read-out: pKi. Entry: Cn1cc(S(=O)(=O)NCCOc2cccc(C(CN)Cc3ccc(Cl)cc3)c2)cn1 (stereo not shown) [Example 8, hydrochloride]
Output line: ≥ 6.00

Input line: What value of pKi has been reported for the following molecule? Cn1cnc(S(=O)(=O)NCCOc2cccc(C(CN)Cc3cccc(C(F)(F)F)c3)c2)c1 (stereo not shown) [Example 12, hydrochloride]
Output line: ≥ 7.00

* * *

- MEASURED_TARGET: human GlyT1c transporter (Homo sapiens (Human), UniProt P48067)
- TEST_NAME: Radioligand binding assays using recombinant CHO cell membranes expressing human GlyT1
- ASSAY_SETUP: read-out: radioligand binding Kiapp
pKi: −log10 of the molar value. Structures can show the parent of a compound that is named as a salt.
VALUE_TYPE: pKi

Input line: Need pKi of Cn1cnc(S(=O)(=O)NCCOc2cccc(C(CN)Cc3cc(F)cc(F)c3)c2)c1 (centres unmarked) [Example 11, hydrochloride] , thanks.
Output line: ≥ 6.00

Input line: Value lookup for pKi; key = CN1CC(Cc2ccccc2)(c2cccc(OCCNS(=O)(=O)c3cn(C)cn3)c2)C1 [Example 78]
Output line: ≥ 7.00

Input line: Name the recorded pKi for Cn1cc(S(=O)(=O)NCCOc2cccc(C3(Cc4ccccc4)CNC(=O)C3)c2)cn1 (centres unmarked) [Example 58] .
Output line: ≥ 6.00

Input line: Look up pKi: Cn1cnc(S(=O)(=O)NCCOc2cccc(C3(Cc4ccccc4)CN(CC(F)(F)F)C3)c2)c1 [Example 54]
Output line: ≥ 6.00

Input line: Which value of pKi has been reported for Cn1cc(S(=O)(=O)NCc2cccc(C(Cc3ccccc3)CN3CCOCC3)c2)cn1 (centres unmarked) [Example 21] in the records?
Output line: ≥ 6.00

Input line: Reported pKi, compound CCCS(=O)(=O)N(C)Cc1cccc(C(CN)C2(c3ccc(Cl)cc3)CCC2)c1 (centres unmarked) [Example 42, hydrochloride] : ____
Output line: ≥ 5.00

Input line: Fill in: pKi of Cn1cc(S(=O)(=O)NCCOc2cccc(C3(Cc4ccccc4)CNC3)c2)cn1 [Example 50] is ___
Output line: ≥ 7.00

Input line: Data request, read-out pKi, for Cn1cnc(S(=O)(=O)NCCOc2cccc(C3(Cc4ccccc4)CCN(CCF)C3)c2)c1 (centres unmarked) [Example 75]
Output line: ≥ 7.00
